- SYSTEM NAME: recombinant Aurora A (Homo sapiens, UniProt O14965)
- Construct: purchased Upstate, Lake Placid, N.Y
- TEST: Aurora A (Aurora 2) Inhibition Assay (Z'-Lyte)
- Assay type: biochemical
- RUN CONDITIONS: 100 μM compound; ATP 10 μM; 1 h
- Procedure: Compounds were tested for their potency against recombinant Aurora A (Upstate, Lake Placid, N.Y.) using the PanVera Z'-Lyte kinase assay kit-Ser/[…] peptide (Invitrogen, Carlsbad, Calif.). […] Coumarin (Ex. 400 nm, Em. 465 nm) and fluorescein (Ex. 400 nm, Em. 565 nm) fluorescence values were measured on a SpectraFluor Plus plate reader (Tecan, Durham, N.C.). The emission ratio (coumarin/fluorescein) was determined and used to calculate the percent phosphorylation for each well. […]
PARAMETER: inhibition at 100 µM (%)
Reply numerically in %, unit not repeated.

Reference set (3 entries):
Cc1cc(Nc2nc(/C=C/c3ccccc3)nc(N3CCN(C)CC3)c2[N+](=O)[O-])[nH]n1 [Example 4]	91
COc1ccc(/C=C/c2nc(Nc3cc(C)[nH]n3)cc(N3CCN(C)CC3)n2)cc1 [Example 160]	100
CCOC(=O)c1nc(/C=C/c2cccc(F)c2)nc(Nc2cc(C)n[nH]2)c1N [Example 22]	97

Prompt: Requested read-out: inhibition at 100 µM. Entry: Cc1cc(Nc2cc(NCc3ccco3)nc(/C=C/c3ccccc3)n2)n[nH]1 [Example 162]
Completion: 100

----------
- SYSTEM NAME: recombinant Aurora A (Homo sapiens, UniProt O14965)
- Construct: purchased Upstate, Lake Placid, N.Y
- Sequence (O14965 1-403): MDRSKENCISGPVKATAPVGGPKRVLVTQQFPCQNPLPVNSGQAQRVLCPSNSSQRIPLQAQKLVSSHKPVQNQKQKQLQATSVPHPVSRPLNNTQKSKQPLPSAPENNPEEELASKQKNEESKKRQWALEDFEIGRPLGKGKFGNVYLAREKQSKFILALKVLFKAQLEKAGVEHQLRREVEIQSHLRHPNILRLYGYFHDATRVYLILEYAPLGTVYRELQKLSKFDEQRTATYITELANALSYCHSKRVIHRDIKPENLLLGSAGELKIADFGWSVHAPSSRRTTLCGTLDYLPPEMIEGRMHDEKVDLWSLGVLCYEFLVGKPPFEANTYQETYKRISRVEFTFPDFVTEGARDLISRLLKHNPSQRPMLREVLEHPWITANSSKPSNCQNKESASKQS
- TEST: Aurora A (Aurora 2) Inhibition Assay (Z'-Lyte)
- Type: biochemical
- RUN CONDITIONS: 100 μM compound; ATP 10 μM; 1 h
PARAMETER: inhibition at 100 µM (%)
Just the number please, in %, no unit attached.

Cc1cc(Nc2cc(Cl)nc(/C=C/c3ccccc3)n2)n[nH]1 [Example 34]	99
Cc1cc(Nc2cc(N3CCN(C)CC3)nc(/C=C/c3ccco3)n2)n[nH]1 [Example 60]	100
Cc1cc(Nc2cc(N3CCCCC3)nc(/C=C/c3ccccc3)n2)n[nH]1 [Example 67]	100
COc1cc(/C=C/c2nc(Nc3cc(C)[nH]n3)cc(N3CCN(C)CC3)n2)cc(OC)c1 [Example 50]	100
Cc1cc(Nc2cc(N3CCSCC3)nc(/C=C/c3ccccc3)n2)n[nH]1 [Example 83]	100

Prompt: Fill in: inhibition at 100 µM of COCCNc1cc(Nc2cc(C)[nH]n2)nc(/C=C/c2ccccc2)n1 [Example 163] is ___
Completion: 100

Prompt: # inhibition at 100 µM lookup, item Cc1cc(Nc2cc(N3CCN(S(C)(=O)=O)CC3)nc(/C=C/c3ccccc3)n2)n[nH]1 [Example 71]
Completion: 100

Prompt: Consider the compound CCOC(=O)c1nc(/C=C/c2ccc(C)cc2)nc(Nc2cc(C)n[nH]2)c1N [Example 21] and give its measured inhibition at 100 µM.
Completion: 100

Prompt: Entry under review: Cc1cc(Nc2nc(/C=C/c3ccccc3)nc(N3CCNCC3)c2N)[nH]n1 [Example 13] . Reported inhibition at 100 µM?
Completion: 93

Prompt: Form field: reported inhibition at 100 µM of Cc1cc(Nc2cc(NCCN(C)C)nc(/C=C/c3ccccc3)n2)n[nH]1 [Example 66]
Completion: 100

Prompt: Give its inhibition at 100 µM value. Item: Cc1cc(Nc2cc(NCC3CCCO3)nc(/C=C/c3ccccc3)n2)n[nH]1 (centres unmarked) [Example 164]
Completion: 100

Prompt: Given Cc1cc(Nc2nc(/C=C/c3ccccc3)nc(N3CCCC3)c2N)[nH]n1 [Example 15] , state its recorded inhibition at 100 µM.
Completion: 100

----------
- SYSTEM NAME: Aurora B kinase (Homo sapiens, UniProt Q96GD4)
- Construct: purchased BPS Biosciences, San Diego, Calif
- Sequence (Q96GD4 whole entry): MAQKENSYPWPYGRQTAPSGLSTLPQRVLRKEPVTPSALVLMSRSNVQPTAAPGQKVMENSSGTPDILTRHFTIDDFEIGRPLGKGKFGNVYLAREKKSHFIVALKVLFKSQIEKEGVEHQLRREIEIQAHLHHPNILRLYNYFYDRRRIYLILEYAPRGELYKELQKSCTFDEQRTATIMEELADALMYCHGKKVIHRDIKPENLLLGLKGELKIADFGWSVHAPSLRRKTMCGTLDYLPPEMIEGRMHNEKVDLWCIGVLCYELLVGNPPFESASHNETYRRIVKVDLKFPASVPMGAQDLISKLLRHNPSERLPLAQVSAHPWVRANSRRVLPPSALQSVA
- TEST: Aurora B (Aurora 1) Inhibition Assay
- Type: biochemical
- RUN CONDITIONS: 100 μM compound; ATP 50 μM; 16 h
inhibition at 100 µM listing for selected compounds.
Field: numeric (%). Do not append units.

COCCNc1cc(Nc2cc(C)[nH]n2)nc(/C=C/c2ccccc2)n1	100
Cc1cc(Nc2cc(N3CCN(C)CC3)nc(/C=C/c3ccco3)n2)n[nH]1	99

Prompt: Quick one: inhibition at 100 µM of Cc1cc(Nc2cc(OC3CCNCC3)nc(/C=C/c3ccccc3)n2)n[nH]1 ?
Completion: 100

Prompt: Requested read-out: inhibition at 100 µM. Entry: CCOC(=O)c1nc(/C=C/c2ccccc2)nc(Nc2cc(C)n[nH]2)c1N
Completion: 100

Prompt: Would you mind telling me what inhibition at 100 µM value was observed for Cc1cc(Nc2cc(N3CCN(C)CC3)nc(/C=C/c3ccccc3)n2)n[nH]1 ?
Completion: 100

Prompt: Requested field: inhibition at 100 µM. Item: Cc1cc(Nc2cc(N3CCN(C)CC3)nc(C#Cc3ccccc3)n2)n[nH]1
Completion: 97

Prompt: Which value of inhibition at 100 µM has been reported for Cc1cc(Nc2nc(/C=C/c3ccccc3)nc(N3CCN(C)CC3)c2N)[nH]n1 in the records?
Completion: 97

Prompt: Fill in: inhibition at 100 µM of COC(=O)c1cc(Nc2cc(C)n[nH]2)nc(/C=C/c2ccccc2)n1 is ___
Completion: 95

Prompt: Tell me the measured inhibition at 100 µM of Cc1cc(Nc2cc(NCC3CCCO3)nc(/C=C/c3ccccc3)n2)n[nH]1 (stereo not shown) , please.
Completion: 100

Prompt: // inhibition at 100 µM lookup, key: Cc1cc(Nc2cc(N3CCN(C)CC3)nc(/C=C\c3ccccc3)n2)n[nH]1
Completion: 99

----------
- SYSTEM NAME: recombinant Aurora A (Homo sapiens)
- Construct: purchased Upstate, Lake Placid, N.Y
- TEST: Aurora A (Aurora 2) Inhibition Assay (Z'-Lyte)
- Format: biochemical
- RUN CONDITIONS: 100 μM compound; ATP 10 μM; 1 h
Some compounds, each annotated with its measured inhibition at 100 µM.
Numeric only. Scale: %

Please review the entries below; each comes with its answer.
Cc1cc(Nc2cc(Nc3ccc(F)cc3)nc(/C=C/c3ccccc3)n2)n[nH]1	100
COC(=O)c1ccc(/C=C/c2nc(Nc3cc(C)[nH]n3)c([N+](=O)[O-])c(N3CCN(C)CC3)n2)cc1	99

Prompt: Fill in: inhibition at 100 µM of CCOC(=O)c1nc(/C=C/c2ccccc2)nc(Nc2cc(C)n[nH]2)c1[N+](=O)[O-] is ___
Completion: 62

Prompt: Which inhibition at 100 µM is reported for this compound? Cc1cc(Nc2cc(N3CCOCC3)nc(/C=C/c3ccccc3)n2)n[nH]1
Completion: 100

Prompt: // lookup inhibition at 100 µM for Cc1cc(Nc2cc(N3CCN(C)CC3)nc(/C=C/c3ccc(Br)cc3)n2)n[nH]1
Completion: 100

Prompt: Reported inhibition at 100 µM, compound CCOC(=O)c1nc(/C=C/c2ccc(OC)cc2)nc(Nc2cc(C)n[nH]2)c1N : ____
Completion: 99

Prompt: Look up inhibition at 100 µM for this compound: Cc1cc(Nc2cc(N3CCN(C)CC3)nc(/C=C/c3ccc(Cl)cc3)n2)n[nH]1
Completion: 100

Prompt: Consider the compound Cc1cc(Nc2nc(/C=C/c3ccccc3)nc(Nc3cc(C)n[nH]3)c2N)[nH]n1 and give its measured inhibition at 100 µM.
Completion: 98

----------
Overview of recorded inhibition at 100 µM for various compounds
- SYSTEM NAME: recombinant Aurora A (Homo sapiens)
- Construct: purchased Upstate, Lake Placid, N.Y
- TEST: Aurora A (Aurora 2) Inhibition Assay (Z'-Lyte)
- Format: biochemical
- RUN CONDITIONS: 100 μM compound; ATP 10 μM; 1 h
// note: answer is a bare numeric in %

The following compounds have reported results that may help.
Cc1cc(Nc2cc(N3CCN(C)CC3)nc(/C=C/c3ccccc3)n2)n[nH]1	100
Cc1cc(Nc2cc(N3CCN(C)CC3)nc(/C=C\c3ccccc3)n2)n[nH]1	100
Cc1cc(Nc2cc(OC3CCNCC3)nc(/C=C/c3ccccc3)n2)n[nH]1	100
Cc1cc(Nc2cc(NC3CCOCC3)nc(/C=C/c3ccccc3)n2)n[nH]1	100
CCOC(=O)c1nc(/C=C/c2ccccc2)nc(Nc2cc(C)n[nH]2)c1N	100

Prompt: Give the measured inhibition at 100 µM of Cc1cc(Nc2cc(Nc3ccccc3)nc(/C=C/c3ccccc3)n2)n[nH]1 .
Completion: 100

Prompt: Fill in: inhibition at 100 µM of Cc1cc(Nc2nc(/C=C/c3ccc(Cl)cc3)nc(N3CCN(C)CC3)c2[N+](=O)[O-])n[nH]1 is ___
Completion: 89
